// provenance: the kinase profiling compilation of Christmann-Franck et al. (2016)

Test system: PIK3CA (human), P42336 [Q546K]
Sequence (P42336 whole entry Q546K, looked up): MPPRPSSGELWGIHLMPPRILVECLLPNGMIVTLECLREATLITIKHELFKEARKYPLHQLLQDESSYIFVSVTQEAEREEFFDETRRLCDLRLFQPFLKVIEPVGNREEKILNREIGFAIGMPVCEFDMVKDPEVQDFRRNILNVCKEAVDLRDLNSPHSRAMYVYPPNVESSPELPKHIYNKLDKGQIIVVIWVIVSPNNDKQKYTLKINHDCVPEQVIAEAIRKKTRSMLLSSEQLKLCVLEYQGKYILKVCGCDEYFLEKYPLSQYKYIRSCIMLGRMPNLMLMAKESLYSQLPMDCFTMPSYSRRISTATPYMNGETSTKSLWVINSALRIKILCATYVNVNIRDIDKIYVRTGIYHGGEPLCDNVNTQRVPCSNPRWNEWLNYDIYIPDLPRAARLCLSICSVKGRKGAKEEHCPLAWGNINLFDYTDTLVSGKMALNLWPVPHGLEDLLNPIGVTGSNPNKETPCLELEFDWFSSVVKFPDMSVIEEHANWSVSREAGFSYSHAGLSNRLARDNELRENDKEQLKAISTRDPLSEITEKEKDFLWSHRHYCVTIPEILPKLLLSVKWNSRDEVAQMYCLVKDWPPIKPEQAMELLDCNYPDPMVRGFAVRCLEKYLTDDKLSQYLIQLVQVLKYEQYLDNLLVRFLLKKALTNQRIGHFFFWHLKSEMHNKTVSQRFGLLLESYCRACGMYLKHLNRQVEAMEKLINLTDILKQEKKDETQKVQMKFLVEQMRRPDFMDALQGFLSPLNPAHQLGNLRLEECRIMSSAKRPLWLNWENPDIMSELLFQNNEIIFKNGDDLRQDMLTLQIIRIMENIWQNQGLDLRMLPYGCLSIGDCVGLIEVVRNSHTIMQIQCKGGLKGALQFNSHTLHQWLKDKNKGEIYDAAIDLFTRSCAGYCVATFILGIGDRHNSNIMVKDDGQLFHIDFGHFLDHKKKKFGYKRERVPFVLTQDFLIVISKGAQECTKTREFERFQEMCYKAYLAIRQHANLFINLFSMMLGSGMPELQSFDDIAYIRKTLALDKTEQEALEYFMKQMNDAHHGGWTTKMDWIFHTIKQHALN
method notes: KINOMEscan competition binding
test context: compound 10.0 µM
Consider the following partition of reported kinase still bound, per cent of control into named classes: label 0 = under 40%, label 1 = from 40% up to 90%, label 2 = 90% and over

> print(dat)
                                    compound  classification
 1  CC(=O)c1c(C)c2cnc(Nc3ccc(N4CCNCC4)cn3)nc2n(C2CCCC2)c1=O         label 0
 2  COCC(=O)NC/C=C/c1ccc2ncnc(Nc3ccc(Oc4ccc(C)nc4)c(C)c3)c2c1         label 0
 3  COc1cc(N2CCN(C)CC2)ccc1Nc1ncc2c(n1)N(C)c1ccccc1C(=O)N2C         label 2
 4  CCCS(=O)(=O)Nc1ccc(F)c(C(=O)c2c[nH]c3ncc(Cl)cc23)c1F         label 1
 5  CC1=C(C(=O)Nc2cc3cn[nH]c3cc2F)C(c2ccc(C(F)(F)F)cc2)CC(=O)N1 (stereo unspecified)         label 0
 6  O=C(NC1CC1)c1cccc(-c2ccc3c(NC(=O)C4CC4)n[nH]c3c2)c1         label 2
 7   OCCCNc1cc(-c2ccnc(Nc3cccc(Cl)c3)n2)ccn1         label 2
 8  CCOc1cc(N2CCC(O)CC2)ccc1Nc1ncc2c(n1)N(C)c1ccccc1C(=O)N2C         label 2
 9  NC(=O)Nc1cc(-c2cccc(F)c2)sc1C(=O)N[C@@H]1CCCNC1         label 1
10  CNC(=O)Nc1ccc(-c2nc(N3CC4CCC(C3)O4)c3cnn(C4CCC5(CC4)OCCO5)c3n2)cc1         label 0
11  CCN1CCN(C(=O)Cc2ccc(Nc3ncc(F)c(Nc4ccc(C(=O)Nc5ccccc5Cl)cc4)n3)cc2)CC1         label 0
12  COc1cc2c(Nc3ccc(NC(=O)c4ccccc4)cc3)ncnc2cc1OCCCN1CCOCC1         label 0
13  CCCS(=O)(=O)Nc1ccc(F)c(C(=O)c2c[nH]c3ncc(-c4ccc(Cl)cc4)cc23)c1F         label 1
14  Cc1cn(-c2cc(C(=O)Nc3ccc(C)c(NC(=O)c4ccno4)c3)cc(C(F)(F)F)c2)cn1         label 2
15  N#CCNC(=O)c1ccc(-c2ccnc(Nc3ccc(N4CCOCC4)cc3)n2)cc1         label 2
16  O=c1[nH]c2ccccc2n1C1CCN(Cc2ccc(-c3nc4cc5[nH]cnc5cc4nc3-c3ccccc3)cc2)CC1         label 1
17  N#Cc1cc(-c2ccnc(Nc3ccc(-n4cnc(-c5cccnc5)n4)cc3)n2)cc(N2CCOCC2)c1         label 1
18  O=C(Nc1cccc(Nc2ncc(Br)c(NCCc3cnc[nH]3)n2)c1)N1CCCC1         label 1
19  CN(C)C/C=C/C(=O)Nc1cccc(Nc2ncc3c(n2)N(C)c2ccccc2C(=O)N3C)c1         label 0
